Value source: paper PMC5682932

Target: T1, PPIH W133A mutant (human, UniProt O43447 1-177, W133A)
T1 sequence: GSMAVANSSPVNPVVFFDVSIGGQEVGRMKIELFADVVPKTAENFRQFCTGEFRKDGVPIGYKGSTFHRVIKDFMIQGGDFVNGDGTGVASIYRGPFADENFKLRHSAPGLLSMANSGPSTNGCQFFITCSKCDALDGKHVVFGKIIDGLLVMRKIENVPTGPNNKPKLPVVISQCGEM
Experiment: SPR
Reported Property: Kd

[ask] Which Kd reading was recorded for the binder PRPF4 residues 106-169 with F122A (domain or fragment, human, UniProt O43172 106-169, looked up) SEVKACLRALGEPITLAGEGPAERRERLRNILSVVGTDALKKTKKDDEKSKKSKEEYQQTWYHE ?
[reply] 1000 nM
